B1: Far upstream element-binding protein 1, residues 184 to 257; numbered along this chain, Q96AE4 (parent)
chain: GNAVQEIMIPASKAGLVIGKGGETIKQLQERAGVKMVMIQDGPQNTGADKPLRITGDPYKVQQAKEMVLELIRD

Variants of: B1
EXPERIMENT: abundance fitness (aPCA) (normalised: wild type 0, dead -1); higher = more abundant; growth selection in yeast, the domain comes from the species named
STUDY CONDITIONS: Homo sapiens
Parameter: abundance fitness. Scope: all listed entries.
ASSAY READOUT: abundance fitness

>>> measured("GNAVQEIMIPASKAGLVIGKGGETITQLQERAGVKMVMIQDGPQNTGADKPLRITGDPYKVQQAKEMVLELIRD [K26T]")
-0.066
>>> measured("GNAVQEIMIPASKAGLVIGKGGETIKQLQERAGVKMVMIQDGPQNTGALKPLRITGDPYKVQQAKEMVLELIRD [D49L]")
-0.052
>>> measured("GNAVQEIMIPASKAGLVIGKGGETIKQLQERAGVKMVMIQDGPQNTGADKPARITGDPYKVQQAKEMVLELIRD [L52A]")
-0.807
>>> measured("GNAVQEIMIPASKAGLVIGKGGETIKQLQERAGVKMVMIQDGPQNTGADKPLRITGDPYKVQQAKEGVLELIRD [M67G]")
-0.177
>>> measured("GNAVQEIMIPASKAGLVIGKGGETIKQLQERAGVKMVMIQDGPQNTGADKPLRITGDPYKVQQLKEMVLELIRD [A64L]")
-0.839
>>> measured("GNAVQEIMIPASKAGLVIGKGGETIKQLQERAGVKMVMIQDGPQNTGADKPLRITQDPYKVQQAKEMVLELIRD [G56Q]")
-0.962
>>> measured("GNAVQEIMIPASKAGLVIGKGGETIKQLQERAGVKMVMIQDGPQNTGADKPLRITGDPVKVQQAKEMVLELIRD [Y59V]")
-0.024
>>> measured("GNAVQEIMIPASKAGLVIGKGGETIKQLQERAGVKMVMIQDGPQNTGADKPLRITWDPYKVQQAKEMVLELIRD [G56W]")
-1.22
>>> measured("GNAVQEIMIPASKAGLVIGKGGETIKQLQERAGVKMVMIQDGPQNTKADKPLRITGDPYKVQQAKEMVLELIRD [G47K]")
0.061
>>> measured("GNAVQEIMIPASKAGRVIGKGGETIKQLQERAGVKMVMIQDGPQNTGADKPLRITGDPYKVQQAKEMVLELIRD [L16R]")
-0.087
>>> measured("GNAVQEIMIPASKAGLVIGKGGETIKQLQERAFVKMVMIQDGPQNTGADKPLRITGDPYKVQQAKEMVLELIRD [G33F]")
-0.43
>>> measured("GNAVQEIMIPASKAGLVIGKGGETIKQLQERAGVKMVMIQDGPENTGADKPLRITGDPYKVQQAKEMVLELIRD [Q44E]")
-0.06
>>> measured("GNAVQEIMIPASKAGLVIGKGGETIKQLQERAKVKMVMIQDGPQNTGADKPLRITGDPYKVQQAKEMVLELIRD [G33K]")
-0.097
>>> measured("GNAVQEIMIPASKAGLVIGKGGETIKQLQERAGVKMVMIQDGPQNTGADKPLRITGHPYKVQQAKEMVLELIRD [D57H]")
-0.022
>>> measured("GNAVQEIMIPASKAGLVIGKGGETIKQLQERAGEKMVMIQDGPQNTGADKPLRITGDPYKVQQAKEMVLELIRD [V34E]")
-0.753
>>> measured("GNAVQEIMIPASKAGLVIGKGGETIKQLQERAGVKMVMIQDGPQNTDADKPLRITGDPYKVQQAKEMVLELIRD [G47D]")
-0.043
>>> measured("GNAVQEIMIPASKAGLVIGKGGETIKQLQERAGVKMVMIQDGPQNTGADKPLRITGDPYKNQQAKEMVLELIRD [V61N]")
-0.764
>>> measured("GNAVQEIMIPASKAGLVIGKGGETIKQLQERAGVKMVMIQDGPQNTGADKMLRITGDPYKVQQAKEMVLELIRD [P51M]")
0.028
>>> measured("GNAVQEIMIPASKAGLVIGKGGETIKQLQERAGVKMVMIQDGPQNTGADKPTRITGDPYKVQQAKEMVLELIRD [L52T]")
-0.878
>>> measured("GNAVQEIMIPASKAGLVIGKGGETIKQLQERAGVKMIMIQDGPQNTGADKPLRITGDPYKVQQAKEMVLELIRD [V37I]")
-0.049
>>> measured("GNAVQEIMIPASKAGLVIGKGGETIKQLQERAGVKMVMIQDGPQNSGADKPLRITGDPYKVQQAKEMVLELIRD [T46S]")
-0.04
>>> measured("GNAVQEIMIPASKAGLVIGKGGETIKQLQERAGVKMVMIQDGPQNTGADKPLAITGDPYKVQQAKEMVLELIRD [R53A]")
-0.14
